Data provenance: paper PMC12136788

# tgt: T1, UNK ZnF1-3 (human, UniProt Q9C0B0 31-174)
# T1 sequence: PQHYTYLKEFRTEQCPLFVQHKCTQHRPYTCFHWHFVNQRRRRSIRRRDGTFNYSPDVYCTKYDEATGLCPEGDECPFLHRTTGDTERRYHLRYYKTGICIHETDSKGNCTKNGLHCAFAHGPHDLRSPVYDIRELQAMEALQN
# assayText: nsRBNS (natural sequence RNA bind-n-seq); RBNS binding buffer (assumed for nsRBNS): 25 mM Tris pH 7.5, 150 mM KCl, 3 mM MgCl2, 0.01% Triton X-100, 500 ug/ml BSA, 20 U/ml SUPERase-In, 4 C; UNK is unkempt and MSI1 is Musashi-1; names of the RNAs are library labels; protein concentration not given here; high values mean tight binding
The full ranking holds about 24,000 sequences; the median of “enrichment r” is about 0.99, and the highest 2% start at about 3.7. Many of the other results were omitted from the sample, so the highest values are more common in it than they were.
assayMetric: binding signal (enrichment R)

binder	val
chr17:56552419:56552420:-_ENSMUSG00000013236_ENSMUST00000086828|mus_mus|mus_mus_mus_hu_False|1_58 (ssRNA) RNA: GGGAGUUCUACAGUCCGACGAUCAAAAAAUACACUAUUUAAAAAAAAUGAAAUGUCACGGGAUACAGUUACACUGACACUAUUAAAAGAAAGCUGGAUUCUGGUCCCAGCCCAGUGUCCCCAGGCUGCAGAGCGGGGCAGAGGCAACAGAGGAUUGAGCAUCA	3.44
chr1:201104638:201104639:-_ENSG00000116857_ENST00000367334|hu_hu|FALSE|FALSE (ssRNA) RNA: GGGAGUUCUACAGUCCGACGAUCAGAGAUCAGAGACCACAUCCCUCUUCCCUAAUCAAAAUAGCCAAGUACAACAUUUCUAAAGUUAGGGAGAAGGAGGAAAAAUGCCACAGGCUUUUAAAGGGAAGACUGGAACCGAGGGAACAACAGAGGAUUGAGCAUCA	2.05
chr19:16212804:16212805:+_ENSG00000167460_ENST00000300933|hu_hu|motif|central (ssRNA) RNA: GGGAGUUCUACAGUCCGACGAUCAGGAAAUAUGCAAAAGAACAUCACAUCAAGGAUCAAUUAAUUACCAUCUAUUAAUUACGGUAUGUGGGUAAUUAUGACUAUUUCCCAAGCAUUCUACGUUGACUGCUUGAGAAGAUGUUUCAACAGAGGAUUGAGCAUCA	0.67
chr17:56552419:56552420:-_ENSMUSG00000013236_ENSMUST00000086828|mus_mus|mus_mus_mus_hu_False|1_68 (ssRNA) RNA: GGGAGUUCUACAGUCCGACGAUCAAAAAAUACACUAUUUAAAAAAAAUGAAAUGUCACGGGAUACAAAAAAAUAUAGAGUUUUAAAAGAAAGCUGGAUUCUGGUCCCAGCCCAGUGUCCCCAGGCUGCAGAGCGGGGCAGAGGCAACAGAGGAUUGAGCAUCA	9.75
chr1:36770067:36770068:+_ENSG00000054118_ENST00000354618|hu_mus|FALSE|FALSE (ssRNA) RNA: GGGAGUUCUACAGUCCGACGAUCUUAAGAGUCAAAGUUGCCCAAAUUAAAAUCUUUACACUAAUAUUACUAUAUAUCCCCUAAAAAGAAGAAAAAGAAAAAAGGAUUUCUUAAUAAAACUCAGGACAGGAAGAGACUGAAAACCAACAGAGGAUUGAGCAUCA	2.39
chr7:155493584:155493585:+_ENSG00000184863_ENST00000401878|hu_mus|FALSE|FALSE (ssRNA) RNA: GGGAGUUCUACAGUCCGACGAUCAGAAAGUUCCAAAGUUUCUGGAAUGUUCCUUCUCUCUCUAGUUACAUCUGAAAGCCUAAUAAUUGUUCCUUCUUUCCUUUCAGUUUUAAAACGUAAUCGUCCAGAUUCUUCAUCAUCAUCCAACAGAGGAUUGAGCAUCA	0.81
chr1:36770067:36770068:+_ENSG00000054118_ENST00000354618|hu_hu|FALSE|FALSE (ssRNA) RNA: GGGAGUUCUACAGUCCGACGAUCUCUUUCAAGAAUCAAAGUUUCCCAAAUUAAAUGUUUCUAAUAUUACUACAUAUGCCUAAAAAAAGAAAAAAAAAAAAAAAAAGGAGGGGGCUUUUAAAAUCAGGACAGGGGAAAAGAGAUCAACAGAGGAUUGAGCAUCA	4.92
